# protocol: basal S. cerevisiae growth modulation, no modifier, primary screen, OD600, strain BY4716, 24 h, basal condition (AID 1173)
# condition: OD600, 24 h, higher = more signal, called active from +8 up or from −8 down
// z-score lookup, one value per entry
measuredQuantity: z-score

{"columns": ["molecule", "valueMeasured"],
 "data": [
  ["CCOC(=O)C1=CC[C@@H](c2ccccc2)N(S(=O)(=O)c2ccc(C)cc2)[C@H]1c1cccc(OC)c1", 2.25],
  ["[N-]=[N+]=NCc1ccccc1C[C@]1(C(=O)N2CCOCC2)COC(c2ccc(OCCCO)cc2)=N1", -2.42],
  ["C=CCC(OC(C)=O)[C@@H]1[C@@H](N(Cc2ccc(-c3cccc(C(F)(F)F)c3)o2)C(=O)c2cccc3ccccc23)c2cc(OCCCO)ccc2N1C(=O)Cc1ccc(OC)cc1 (stereo not given in full)", -1.8],
  ["O=C1C2C=CC(C(O)c3cccc(O)c3)N(Nc3ccccc3)C2C(=O)N1c1ccccc1 (stereo not given)", -0.774],
  ["CCCNC(=O)[C@@]1(Sc2ccc(C)cc2)CC(=O)N(C(C)C)[C@@H]1c1ccc(CO)cc1I", -1.18]
]}

###

Catalogue of z-score readings, one per entry.
# protocol: basal RPMI8226 mitochondrial membrane potential changes, profiling panel, cell-based, JC-1 fluorescence, 24 h, 100 nL compound (AID 1169); also: test concentration not given here
# condition: RPMI8226 myeloma, JC-1 mitochondrial potential fluorescence, higher = more signal
measuredQuantity: z-score

{"columns": ["molecule", "valueMeasured"],
 "data": [
  ["CN1C(=O)C2C=CC(C(O)c3cc(C(F)(F)F)cc(C(F)(F)F)c3)N(Nc3ccccc3)C2C1=O (centres undefined)", -0.222],
  ["CC(C)N1CC=CC23O[C@@H]4/C=C\\CCCOC(=O)C4[C@H]2C(=O)N(CCCCCCO)[C@@H]3C1=O (some centres undefined)", -0.659],
  ["C=CCNC(=O)[C@H]1[C@@H]2C(=O)O[C@@H](c3ccccc3)[C@@H](c3ccccc3)N2[C@@H](c2ccc(OCCO)cc2)[C@]12C(=O)N(C(=O)OCCOC)c1ccc(C#Cc3ccc(OC)cc3)cc12", -0.904],
  ["C=C[C@@H](OC)[C@H](OC(=O)Nc1ccc(OC)cc1)c1ccc(OC)c(O)c1", 0.616]
]}

###

Measured composite z-score values are reported for all entries that follow.
# experimentalTarget: Torsin-1A-interacting protein 2 (Homo sapiens)
# protocol: LULL1 binders on small-molecule microarray, primary screen, cell lysate, human LULL1 lysate, 635/667 nm fluorescence (AID 1092);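 also: probe is lysate of COS7 cells overexpressing human LULL1; score merges per-feature 667 nm fluorescence with signal-to-noise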
# condition: hLULL1 lysate binding, 635 nm fluorescence, higher = more signal

{"columns": ["entrySmiles", "composite z-score"],
 "data": [
  ["COc1ccc(C#Cc2ccc3c(c2)[C@]2(C(=O)N3)[C@H](C(=O)Nc3nc4ccccc4s3)[C@H]3C(=O)O[C@H](c4ccccc4)[C@H](c4ccccc4)N3[C@@H]2c2ccccc2OCCO)cc1", 3.08],
  ["COC(=O)[C@@]1(Cc2ccc(OC)cc2)[C@H]2c3cc(C(=O)N4CCCC4)n(Cc4ccc(S(C)(=O)=O)cc4)c3C[C@H]2CN1C(=O)c1ccccc1", 3],
  ["CC(C)CNC(=O)[C@@H]1c2ccccc2C(=O)N(C2CCCCC2)[C@H]1c1ccc(CO)cc1", 3.03]
]}

###

# protocol: P. aeruginosa biofilm formation inhibitors, primary screen, strain PAO1, LB-PBS medium, absorbance 600 nm (AID 1176); also: test concentration not given here
# condition: P. aeruginosa PAO1 growth/biofilm, A600, 12 h; higher = more signal
z-score reference
measuredQuantity: z-score

{"columns": ["molecule", "measuredQuantity", "valueMeasured"],
 "data": [
  ["C[C@]1(C(=O)NCC(F)(F)F)c2ccccc2C(=O)N(Cc2ccccc2)[C@H]1c1ccc(CO)cc1", "z-score", -0.0807],
  ["COc1ccc([Si](C)(C)[C@@H]2[C@@H](CCn3cc([C@H](O)c4ccccc4)nn3)O[C@]3(C(=O)N(c4ccccc4)c4ccccc43)[C@H]2C)cc1", "z-score", 1.08],
  ["O=C1C2C=CC(C(O)c3ccc(I)cc3)N(Nc3ccccc3)C2C(=O)N1c1ccccc1 (centres undefined)", "z-score", 1.58],
  ["COCCCNC(=O)[C@@]1(c2ccc([N+](=O)[O-])cc2)CC(=O)N(C(C)C)[C@@H]1c1ccc(CO)cc1", "z-score", 0.0561]
]}

###

# protocol: COS7 lysate on small-molecule microarray, probe aHis, 635 nm (AID 1123);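 also: z-score combines 667nm fluorescence intensity with signal-to-noise per printed compound spot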
# condition: COS7 cell lysate, fluorescence, higher = more signal
Please mark condition met if the recorded composite z-score is equal to or greater than 0.7, and condition not met if it falls below.

{"columns": ["compound", "cat"],
 "data": [
  ["CC(C)CNC(=O)[C@@H]1c2ccccc2C(=O)N(C2CCCCC2)[C@H]1c1ccc(CO)cc1", "condition met"],
  ["COc1ccc(CCNC(=O)[C@@]2(Cc3ccccc3I)c3ccccc3C(=O)N(Cc3ccccc3Cl)[C@H]2c2ccc(CO)cc2)cc1", "condition met"],
  ["COc1ccc([Si](C)(C)[C@H]2[C@H](CCO)O[C@@]3(C(=O)N(Cc4ccccc4)c4ccc(N5CCOC5=O)cc43)[C@@H]2C)cc1", "condition not met"],
  ["CO[C@H]1O[C@H](CO)[C@@H](OC(=O)Nc2cccc(F)c2)[C@H](OC(=O)Nc2ccccc2-c2ccccc2)[C@H]1OC(=O)Nc1ccccc1-c1ccccc1", "condition met"],
  ["Cc1ccc(S[C@]2(C(=O)NCC(C)C)CC(=O)N(C3Cc4ccccc4C3)[C@@H]2c2ccc(CO)cc2I)cc1", "condition not met"],
  ["CCOC(=O)C1=CC[C@@H](c2ccccc2)N(S(=O)(=O)c2ccc(C)cc2)[C@H]1c1cccc(OC)c1", "condition met"],
  ["COc1ccc(C(O)C2C=CC3C(=O)N(c4ccccc4)C(=O)C3N2Nc2ccccc2)cc1 (stereo not drawn)", "condition met"],
  ["CCC(CC)C(O)C1C=CC2C(=O)N(c3ccccc3)C(=O)C2N1Nc1ccc([N+](=O)[O-])cc1 (stereo not drawn)", "condition met"],
  ["COCCCNC(=O)[C@@]1(Sc2ccc(C)cc2)CC(=O)N(Cc2ccccc2Cl)[C@@H]1c1ccc(CO)cc1I", "condition not met"],
  ["COCCOC(=O)N1C(=O)[C@@]2(c3cc(C#CCCO)ccc31)[C@H](C(N)=O)[C@H]1C(=O)O[C@H](c3ccccc3)[C@H](c3ccccc3)N1[C@@H]2c1ccc(OCCO)cc1", "condition met"],
  ["O=C1OCC=C[C@H]2OC34C=CCN(c5ccc6ccccc6c5)C(=O)[C@H]3N(CCCCCO)C(=O)[C@@H]4[C@@H]12 (stereo partly drawn)", "condition met"],
  ["COCCOC(=O)N1C(=O)[C@@]2(c3cc(C#CCC(C(=O)OC)C(=O)OC)ccc31)[C@H](c1ccc(OCCO)cc1)N1[C@H](c3ccccc3)[C@H](c3ccccc3)OC(=O)[C@H]1[C@@H]2C(=O)Nc1nc2ccccc2s1", "condition not met"],
  ["NCCCCCNC(=O)[C@H]1C[C@H]2C(=O)N[C@@H](Cc3ccccc3)C(=O)N2[C@H]1c1ccc(O)cc1", "condition met"],
  ["C=CCC(OC(C)=O)[C@@H]1[C@@H](N(Cc2ccc(-c3ccccc3)cc2)C(=O)c2ccc(C)cc2)c2cc(OCCCO)ccc2N1C(=O)Cc1ccc2ccccc2c1 (stereo partly drawn)", "condition met"],
  ["O=C(N1CCOCC1)[C@@]1(CCS(=O)(=O)c2ccccc2)N=C(c2ccc(OCCCO)cc2)O[C@H]1c1ccccc1", "condition met"],
  ["CCOC(=O)C[C@H]1[C@H](OC(=O)c2ccccc2-c2ccccc2)[C@@H](NC(=O)c2ccccc2)c2cc(OCCCO)ccc2N1C(=O)c1ccccc1", "condition not met"],
  ["CN1C(=O)C2C(C1=O)C1C=C(CCCO)C2C(c2cccs2)N1Cc1cc2c(cc1Br)OCO2 (stereo not drawn)", "condition met"],
  ["CC(C)c1ccc(NN2C(C(O)Cc3ccccc3)C=CC3C(=O)N(c4ccccc4)C(=O)C32)cc1 (stereo not drawn)", "condition met"],
  ["C=C(CCCC)C(=O)CC[C@H](OC(=O)c1ccccc1-c1ccccc1C(=O)O)c1ccccc1OCCO", "condition not met"],
  ["Cc1ccc(S[C@]2(C(=O)NC(C)C)CC(=O)N(Cc3ccccc3Cl)[C@@H]2c2ccc(CO)cc2)cc1", "condition not met"],
  ["C=C(COC)/C(=C/C[C@H](OC(C)=O)c1cccc(OCCO)c1)c1cnc2ccccc2c1", "condition not met"]
]}

###

# protocol: small-molecule microarray binders of probe aCHRDL2, primary screen, biochemical, biotinylated probe, 635/667 nm fluorescence (AID 1100)
# condition: higher = more signal
# maps each entry to its composite z-score
measuredQuantity: composite z-score

{"columns": ["molecule", "valueMeasured"],
 "data": [
  ["C[C@]1(C(=O)NCCN2CCOCC2)c2ccccc2C(=O)N(Cc2cc(F)cc(C(F)(F)F)c2)[C@H]1c1ccc(CO)cc1", 0.841],
  ["NC(=O)[C@@H]1[C@H]2C(=O)O[C@H](c3ccccc3)[C@H](c3ccccc3)N2[C@H](c2ccc(OCCO)cc2)[C@@]12C(=O)Nc1ccc(C#CCCO)cc12", 0.823],
  ["CCOC(=O)C1=C[C@@H](C(C)(C)C)N(S(=O)(=O)c2ccc(C)cc2)[C@H]1c1ccccc1", 1.22],
  ["COc1cc(CO)cc(I)c1O[C@H]1C=C(C(=O)NCCO)C[C@@H](NCC2CCCCC2)[C@@H]1O", -0.103],
  ["CO[C@H]1O[C@H](CO)[C@@H](OC(=O)CCc2ccccc2)[C@H](OC(=O)c2cc3ccccc3[nH]2)[C@H]1OC(=O)c1cc2ccccc2[nH]1", -0.0052],
  ["CC(C)CCC[C@@H](C)[C@H]1CC[C@@]2(C)C3=C(CC[C@]12C)[C@@]1(C)CC[C@H](OC(=O)c2ccccc2)C(C)(C)C1CC3 (some centres not stated)", -0.501],
  ["COc1ccc(C(O)C2C=CC3C(=O)N(c4ccccc4)C(=O)C3N2Nc2ccccc2F)cc1 (configuration not stated)", 1],
  ["COCCOC(=O)N1C(=O)[C@@]2(c3cc(C#Cc4ccc(OC)cc4)ccc31)[C@H](c1ccc(OCCO)cc1)N1[C@H](c3ccccc3)[C@H](c3ccccc3)OC(=O)[C@H]1[C@@H]2C(=O)Nc1nc2ccccc2s1", 0.533],
  ["O=C1C2C=CC(C(O)c3ccc(I)cc3)N(Nc3ccccc3)C2C(=O)N1c1ccccc1 (configuration not stated)", 1.21],
  ["NCCCCCNC(=O)[C@H]1C[C@H]2C(=O)N[C@@H](Cc3ccccc3)C(=O)N2[C@H]1c1ccc(O)cc1", 0.937],
  ["CN(C)CCCNC(=O)[C@@H]1c2ccccc2C(=O)N(C2CCCCC2)[C@H]1c1ccc(CO)cc1", 0.11],
  ["CN(C)C(=O)[C@@]1(Cc2ccccc2)COC(c2ccc(OCCCO)cc2)=N1", -0.0283]
]}
